- target: T1, human SIRPα1 expressed on cells (human, UniProt P78324 31-504)
- T1 construct: whole, on cells; also called huSIRPα1; ExpiCHO-S (huSIRPα1)
- T1 sequence (P78324 other isoform, or with tags, fused parts or gaps limits assumed): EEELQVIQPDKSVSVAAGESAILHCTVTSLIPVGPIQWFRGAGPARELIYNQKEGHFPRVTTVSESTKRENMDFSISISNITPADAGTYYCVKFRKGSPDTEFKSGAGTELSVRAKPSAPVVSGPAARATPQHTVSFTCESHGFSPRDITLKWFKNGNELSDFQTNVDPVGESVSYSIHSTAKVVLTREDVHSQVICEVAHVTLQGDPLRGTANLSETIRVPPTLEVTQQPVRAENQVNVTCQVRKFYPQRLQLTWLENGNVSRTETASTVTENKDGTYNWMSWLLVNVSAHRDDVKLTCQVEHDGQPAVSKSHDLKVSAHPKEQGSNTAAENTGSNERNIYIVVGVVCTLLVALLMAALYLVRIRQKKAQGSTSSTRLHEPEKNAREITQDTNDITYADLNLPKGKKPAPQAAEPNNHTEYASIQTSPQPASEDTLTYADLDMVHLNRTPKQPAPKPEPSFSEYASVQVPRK
- measurement notes: flow cytometry, ExpiCHO-S cells
Please use rule met for EC50 under 0.2 µg/mL and rule not met for everything else, ties included.

INSERT INTO measurements (binder, class_name) VALUES
  ('29AM4-5-LALA (IgG1) (antibody, V domains shown, human IgG1 LALA, kappa; also called 29AM4-5huIgG1LALA) VH: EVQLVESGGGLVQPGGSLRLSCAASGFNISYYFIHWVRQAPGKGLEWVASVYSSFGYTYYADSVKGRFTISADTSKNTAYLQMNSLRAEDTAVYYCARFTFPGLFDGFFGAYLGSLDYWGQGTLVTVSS VL: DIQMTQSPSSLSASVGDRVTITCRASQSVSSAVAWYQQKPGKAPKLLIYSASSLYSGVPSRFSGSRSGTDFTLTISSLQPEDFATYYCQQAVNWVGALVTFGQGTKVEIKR', 'rule met'),
  ('HEFLB (humanized IgG4) (antibody, V domains shown, humanized IgG4 of WO 2017/178653; also called humanized HEFLB) VH: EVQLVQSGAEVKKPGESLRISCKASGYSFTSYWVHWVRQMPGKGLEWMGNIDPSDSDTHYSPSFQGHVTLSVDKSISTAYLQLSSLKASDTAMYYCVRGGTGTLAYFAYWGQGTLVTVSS VL: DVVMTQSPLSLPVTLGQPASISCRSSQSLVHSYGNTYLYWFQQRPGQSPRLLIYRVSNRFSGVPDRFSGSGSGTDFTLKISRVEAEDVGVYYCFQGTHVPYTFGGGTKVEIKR', 'rule not met');

Is 0.2 µg/mL strictly greater than the binder's reported EC50? binder: humanized anti-SIRPα antibody 5 (antibody, human IgG1, kappa, L234A L235A, V domains shown, human IgG1 LALA, kappa; also called mAb 5) VH: RQLVESGGGLVQPGGSLRLSCAASGFSLSSHGISWVRQAPGKGLEYIGTIGTGVITYYASWAKGRFTGSKTSSTAYLQMTSLRAEDTAVYYCARGSAWNDPFDYWGQGTLVTVSS VL: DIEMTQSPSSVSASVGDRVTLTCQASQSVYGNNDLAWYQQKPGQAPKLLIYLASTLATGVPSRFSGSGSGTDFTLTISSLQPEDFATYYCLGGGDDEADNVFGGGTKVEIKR
rule not met

Is 0.2 µg/mL strictly greater than the binder's reported EC50? binder: humanized anti-SIRPα antibody 10 (antibody, human IgG1, kappa, L234A L235A, V domains shown, human IgG1 LALA, kappa; also called mAb 10) VH: RQLVESGGGLVQPGGSLRLSCAASGFSLSSHGISWVRQAPGKGLEWVGTIGTGGITYYASWAKGRFTGSKTSSTAYMELSSLRAEDTAVYYCARGSAWNDPFDIWGQGTLVTVSS VL: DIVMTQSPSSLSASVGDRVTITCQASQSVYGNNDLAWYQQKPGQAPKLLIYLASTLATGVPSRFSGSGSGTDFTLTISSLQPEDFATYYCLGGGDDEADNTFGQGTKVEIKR
rule met

Hi there! Is EC50 for humanized anti-SIRPα antibody 6 (antibody, human IgG1, kappa, L234A L235A, V domains shown, human IgG1 LALA, kappa; also called mAb 6) VH: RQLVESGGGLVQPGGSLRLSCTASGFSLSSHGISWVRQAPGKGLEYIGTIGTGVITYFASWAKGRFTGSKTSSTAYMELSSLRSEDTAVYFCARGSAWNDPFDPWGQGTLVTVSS VL: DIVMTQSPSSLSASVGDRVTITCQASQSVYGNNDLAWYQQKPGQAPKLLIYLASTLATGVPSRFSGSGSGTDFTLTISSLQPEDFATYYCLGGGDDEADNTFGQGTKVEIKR below 0.2 µg/mL, do you know?
rule not met

Find out if reported EC50 for humanized anti-SIRPα antibody 9 (antibody, human IgG1, kappa, L234A L235A, V domains shown, human IgG1 LALA, kappa; also called mAb 9) VH: RQLVESGGGLVQPGGSLRLSCAASGFSLSSHGISWVRQAPGKGLEWVGTIGTGVITYYASWAKGRFTGSKTSSTAYLQMTSLRSEDTAVYYCARGSAWNDPFDYWGQGTLVTVSS VL: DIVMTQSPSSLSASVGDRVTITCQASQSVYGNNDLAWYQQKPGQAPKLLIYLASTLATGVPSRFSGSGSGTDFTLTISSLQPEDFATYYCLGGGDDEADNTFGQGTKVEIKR is less than 0.2 µg/mL
rule met
